Data origin: ChEMBL document CHEMBL4130382

tested on: RAW264.7; experiment: Antiinflammatory activity in mouse RAW264.7 cells assessed as inhibition of LPS-induced NO production by measuring nitrite level at 20 uM pretreated for 2 hrs followed by LPS challenge measured after 24 hrs by Griess assay; type: functional, cell-based
Activity calls are given as the source filed them. The calls are words filed in the database; no cut-off is given here.
MEASURED PROPERTY: inhibition

INSERT INTO measurements (structure_as_smiles, measured_result) VALUES
  ('CC1(C)[C@@H](O)CC[C@]2(C)[C@H]3C(=O)C=C4[C@@H]5C[C@@](C)(/C=C/C(=O)NCCc6ccccc6)CC[C@]5(C)CC[C@@]4(C)[C@]3(C)CC[C@@H]12', 'inactive'),
  ('CC(=O)O[C@H]1CC[C@]2(C)[C@H]3C(=O)C=C4[C@@H]5C[C@@](C)(/C=C/C(=O)OCc6ccccc6)CC[C@]5(C)CC[C@@]4(C)[C@]3(C)CC[C@H]2C1(C)C', 'inactive'),
  ('CC(C)N(C(=O)/C=C/[C@@]1(C)CC[C@]2(C)CC[C@]3(C)C(=CC(=O)[C@@H]4[C@@]5(C)CC[C@H](O)C(C)(C)[C@@H]5CC[C@]43C)[C@@H]2C1)C(C)C', 'Active'),
  ('CC1(C)[C@@H](O)CC[C@]2(C)[C@H]3C(=O)C=C4[C@@H]5C[C@@](C)(/C=C/C(=O)NCCO)CC[C@]5(C)CC[C@@]4(C)[C@]3(C)CC[C@@H]12', 'Active'),
  ('CNC(=O)/C=C/[C@@]1(C)CC[C@]2(C)CC[C@]3(C)C(=CC(=O)[C@@H]4[C@@]5(C)CC[C@H](O)C(C)(C)[C@@H]5CC[C@]43C)[C@@H]2C1', 'Active'),
  ('CC1(C)[C@@H](O)CC[C@]2(C)[C@H]3C(=O)C=C4[C@@H]5C[C@@](C)(/C=C/C(=O)NCCCN6CCOCC6)CC[C@]5(C)CC[C@@]4(C)[C@]3(C)CC[C@@H]12', 'Active'),
  ('CC(C)NC(=O)/C=C/[C@@]1(C)CC[C@]2(C)CC[C@]3(C)C(=CC(=O)[C@@H]4[C@@]5(C)CC[C@H](O)C(C)(C)[C@@H]5CC[C@]43C)[C@@H]2C1', 'Active'),
  ('CN(C)C(=O)/C=C/[C@@]1(C)CC[C@]2(C)CC[C@]3(C)C(=CC(=O)[C@@H]4[C@@]5(C)CC[C@H](O)C(C)(C)[C@@H]5CC[C@]43C)[C@@H]2C1', 'Active'),
  ('CC1(C)[C@@H](O)CC[C@]2(C)[C@H]3C(=O)C=C4[C@@H]5C[C@@](C)(/C=C/C(=O)N6CCOCC6)CC[C@]5(C)CC[C@@]4(C)[C@]3(C)CC[C@@H]12', 'inactive'),
  ('Cc1cccc(NC(=O)/C=C/[C@@]2(C)CC[C@]3(C)CC[C@]4(C)C(=CC(=O)[C@@H]5[C@@]6(C)CC[C@H](O)C(C)(C)[C@@H]6CC[C@]54C)[C@@H]3C2)c1', 'inactive'),
  ('CC1(C)[C@@H](O)CC[C@]2(C)[C@H]3C(=O)C=C4[C@@H]5C[C@@](C)(/C=C/C(=O)O)CC[C@]5(C)CC[C@@]4(C)[C@]3(C)CC[C@@H]12', 'Active');

* * *

viability at 24 h, 40 µM by entry:
test: Cytotoxicity against mouse RAW264.7 cells assessed as cell viability at 40 uM after 24 hrs by MTT assay (reference value: 100%); format: cell-based; settings: read-out: Activity
MEASURED PROPERTY: viability at 24 h, 40 µM (%)

INSERT INTO assay_data (structure_as_smiles, reading_unit, measured_result) VALUES
  ('CCN1CCN(C(=O)/C=C/[C@@]2(C)CC[C@]3(C)CC[C@]4(C)C(=CC(=O)[C@@H]5[C@@]6(C)CC[C@H](O)C(C)(C)[C@@H]6CC[C@]54C)[C@@H]3C2)CC1', '%', 98.4),
  ('CC1(C)[C@@H](O)CC[C@]2(C)[C@H]3C(=O)C=C4[C@@H]5C[C@@](C)(/C=C/C(=O)O)CC[C@]5(C)CC[C@@]4(C)[C@]3(C)CC[C@@H]12', '%', 99.2),
  ('CCNC(=O)/C=C/[C@@]1(C)CC[C@]2(C)CC[C@]3(C)C(=CC(=O)[C@@H]4[C@@]5(C)CC[C@H](O)C(C)(C)[C@@H]5CC[C@]43C)[C@@H]2C1', '%', 92),
  ('CC1(C)[C@@H](O)CC[C@]2(C)[C@H]3C(=O)C=C4[C@@H]5C[C@@](C)(/C=C/C(=O)N6CCOCC6)CC[C@]5(C)CC[C@@]4(C)[C@]3(C)CC[C@@H]12', '%', 97.5),
  ('CC(C)NC(=O)/C=C/[C@@]1(C)CC[C@]2(C)CC[C@]3(C)C(=CC(=O)[C@@H]4[C@@]5(C)CC[C@H](O)C(C)(C)[C@@H]5CC[C@]43C)[C@@H]2C1', '%', 97.6),
  ('CC1(C)[C@@H](O)CC[C@]2(C)[C@H]3C(=O)C=C4[C@@H]5C[C@@](C)(/C=C/C(=O)NCCCN6CCOCC6)CC[C@]5(C)CC[C@@]4(C)[C@]3(C)CC[C@@H]12', '%', 99.8),
  ('Cc1cccc(NC(=O)/C=C/[C@@]2(C)CC[C@]3(C)CC[C@]4(C)C(=CC(=O)[C@@H]5[C@@]6(C)CC[C@H](O)C(C)(C)[C@@H]6CC[C@]54C)[C@@H]3C2)c1', '%', 99.3),
  ('CN1CCN(C(=O)/C=C/[C@@]2(C)CC[C@]3(C)CC[C@]4(C)C(=CC(=O)[C@@H]5[C@@]6(C)CC[C@H](O)C(C)(C)[C@@H]6CC[C@]54C)[C@@H]3C2)CC1', '%', 96.6),
  ('CC1(C)[C@@H](O)CC[C@]2(C)[C@H]3C(=O)C=C4[C@@H]5C[C@@](C)(/C=C/C(=O)NCCCCl)CC[C@]5(C)CC[C@@]4(C)[C@]3(C)CC[C@@H]12', '%', 95),
  ('CNC(=O)/C=C/[C@@]1(C)CC[C@]2(C)CC[C@]3(C)C(=CC(=O)[C@@H]4[C@@]5(C)CC[C@H](O)C(C)(C)[C@@H]5CC[C@]43C)[C@@H]2C1', '%', 100),
  ('CC1(C)[C@@H](O)CC[C@]2(C)[C@H]3C(=O)C=C4[C@@H]5C[C@@](C)(C(=O)O)CC[C@]5(C)CC[C@@]4(C)[C@]3(C)CC[C@@H]12', '%', 102),
  ('CN(C)C(=O)/C=C/[C@@]1(C)CC[C@]2(C)CC[C@]3(C)C(=CC(=O)[C@@H]4[C@@]5(C)CC[C@H](O)C(C)(C)[C@@H]5CC[C@]43C)[C@@H]2C1', '%', 99.5);

* * *

Recorded viability at 24 h, 20 µM values for a group of compounds are listed next.
assay: Cytotoxicity against mouse RAW264.7 cells assessed as cell viability at 20 uM after 24 hrs by MTT assay (reference value: 100%); type: cell-based; details: read-out: Activity
MEASURED PROPERTY: viability at 24 h, 20 µM (%)

INSERT INTO results (compound, reading_unit, measured_result) VALUES
  ('CC(O)CNC(=O)/C=C/[C@@]1(C)CC[C@]2(C)CC[C@]3(C)C(=CC(=O)[C@@H]4[C@@]5(C)CC[C@H](O)C(C)(C)[C@@H]5CC[C@]43C)[C@@H]2C1 (stereo partly drawn)', '%', 91.4),
  ('CC1(C)[C@@H](O)CC[C@]2(C)[C@H]3C(=O)C=C4[C@@H]5C[C@@](C)(/C=C/C(=O)NCCc6ccccc6)CC[C@]5(C)CC[C@@]4(C)[C@]3(C)CC[C@@H]12', '%', 93),
  ('CC1(C)[C@@H](O)CC[C@]2(C)[C@H]3C(=O)C=C4[C@@H]5C[C@@](C)(/C=C/C(=O)NCCO)CC[C@]5(C)CC[C@@]4(C)[C@]3(C)CC[C@@H]12', '%', 93.6),
  ('CCOC(=O)/C=C/[C@@]1(C)CC[C@]2(C)CC[C@]3(C)C(=CC(=O)[C@@H]4[C@@]5(C)CC[C@H](OC(C)=O)C(C)(C)[C@@H]5CC[C@]43C)[C@@H]2C1', '%', 94.3),
  ('CC1(C)[C@@H](O)CC[C@]2(C)[C@H]3C(=O)C=C4[C@@H]5C[C@@](C)(/C=C/C(=O)NNc6ccccc6)CC[C@]5(C)CC[C@@]4(C)[C@]3(C)CC[C@@H]12', '%', 94.8),
  ('CC(C)N(C(=O)/C=C/[C@@]1(C)CC[C@]2(C)CC[C@]3(C)C(=CC(=O)[C@@H]4[C@@]5(C)CC[C@H](O)C(C)(C)[C@@H]5CC[C@]43C)[C@@H]2C1)C(C)C', '%', 95.8),
  ('CC(=O)O[C@H]1CC[C@]2(C)[C@H]3C(=O)C=C4[C@@H]5C[C@@](C)(/C=C/C(=O)OCc6ccccc6)CC[C@]5(C)CC[C@@]4(C)[C@]3(C)CC[C@H]2C1(C)C', '%', 96.9),
  ('CC1(C)[C@@H](O)CC[C@]2(C)[C@H]3C(=O)C=C4[C@@H]5C[C@@](C)(/C=C/C(=O)NNC(N)=O)CC[C@]5(C)CC[C@@]4(C)[C@]3(C)CC[C@@H]12', '%', 96.7);
